# target system: IL17-RE-IL-17C (Homo sapiens, UniProt Q8NFR9+Q9P0M4)
# Sequence (Q9P0M4 whole entry): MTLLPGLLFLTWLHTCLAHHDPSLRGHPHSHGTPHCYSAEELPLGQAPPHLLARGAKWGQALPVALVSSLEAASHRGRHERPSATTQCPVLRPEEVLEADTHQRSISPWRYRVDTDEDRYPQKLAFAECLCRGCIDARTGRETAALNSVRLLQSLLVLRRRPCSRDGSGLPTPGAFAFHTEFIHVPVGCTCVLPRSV
# Sequence (Q8NFR9 whole entry): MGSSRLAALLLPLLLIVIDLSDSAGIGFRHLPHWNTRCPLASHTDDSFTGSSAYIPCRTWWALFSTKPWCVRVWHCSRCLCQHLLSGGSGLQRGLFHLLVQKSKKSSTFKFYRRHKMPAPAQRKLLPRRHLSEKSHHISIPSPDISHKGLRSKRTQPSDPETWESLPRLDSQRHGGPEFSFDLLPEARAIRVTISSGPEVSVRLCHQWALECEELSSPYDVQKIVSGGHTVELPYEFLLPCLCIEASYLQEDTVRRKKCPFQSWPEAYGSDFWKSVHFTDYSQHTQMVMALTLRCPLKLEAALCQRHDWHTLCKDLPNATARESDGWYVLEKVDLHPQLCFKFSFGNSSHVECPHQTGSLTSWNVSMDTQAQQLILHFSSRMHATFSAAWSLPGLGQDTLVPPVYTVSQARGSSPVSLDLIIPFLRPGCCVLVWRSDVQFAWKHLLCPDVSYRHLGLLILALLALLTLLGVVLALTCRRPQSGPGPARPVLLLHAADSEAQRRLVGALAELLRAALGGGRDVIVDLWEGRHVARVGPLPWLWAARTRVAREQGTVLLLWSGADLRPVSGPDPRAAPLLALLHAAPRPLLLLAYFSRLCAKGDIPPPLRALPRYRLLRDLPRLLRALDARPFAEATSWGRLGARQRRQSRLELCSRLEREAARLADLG
# assay details: Inhibition of interleukin-17RE/biotinylated IL-17C protein-protein interaction (unknown origin) incubated for 1 hrs by competitive ELISA
Bridge positions count the residues as written; N and C are the ends. Peptide text beside a SMILES is read from it.
measured quantity: pIC50
Please keep in mind that pIC50 is minus log10 of the molar concentration; only the number is needed.

Query: Which pIC50 value belongs to CC(C)C[C@@H]1NC(=O)[C@H](C)NC(=O)[C@H](CCCNC(=N)N)NC(=O)[C@H](Cc2ccc(O)cc2)NC(=O)[C@H](Cc2ccc(O)cc2)NC(=O)[C@H](Cc2c[nH]cn2)NC(=O)[C@H](Cc2c[nH]cn2)NC(=O)[C@H](Cc2ccc(O)cc2)NC(=O)CSC[C@@H](C(=O)NCC(N)=O)NC(=O)CNC(=O)[C@H](CC(C)C)NC(=O)[C@H](CCC(=O)O)NC(=O)CNC(=O)[C@H](Cc2ccc(O)cc2)NC1=O ({CH2CO}-YHHYYRALYGELGCG-NH2; thioether N-14) ?
Result: 6.60
